// cross-study collection: IC50 for Cytochrome P450 3A4 (Homo sapiens)
Field: numeric (µM). Do not append units.

Record N#C[C@@H]1C[C@H](F)CN1C(=O)[C@@H](N)Cc1cc2c(cc1Br)OCO2 ; system Cytochrome P450 3A4 (Homo sapiens); IC50 = 2.2

Log: Cytochrome P450 3A4 (Homo sapiens), molecule Cc1cn(-c2c(Cl)cccc2Cl)c(=O)c2cnc(Nc3ccc(N4CCN(C)CC4)cc3)nc12 , IC50 = 4.5

The reported Cytochrome P450 3A4 (Homo sapiens) IC50 of O=C(O)CC1CCC2(CCN(c3ccc(-c4nc5cc(C(F)(F)F)ccc5[nH]4)cn3)CC2)OC1 (stereo in doubt) is 19.5

The reported IC50 value, Cytochrome P450 3A4 (Homo sapiens), for Cc1c(-c2ccccc2)nc2ccc(Br)cc2c1C(=O)NCC(CCCC(=O)O)c1ccccc1Cl (single isomer, unassigned; (+)) reads 20

The value of IC50 recorded for CNC(=O)c1c(-c2ccc(F)cc2)oc2nc(CCC(F)(F)F)c(-c3cc(C(=O)NC(C)(C)c4ncon4)c(=O)n(C)c3)cc12 when tested on Cytochrome P450 3A4 (Homo sapiens) reads 0.44

I looked up Nc1ccc(S(=O)(=O)N2CCN(c3ncc(C(O)(C(F)(F)F)C(F)(F)F)cc3-c3cccnc3)CC2)cn1 and its IC50 for Cytochrome P450 3A4 (Homo sapiens) was 27

Response field IC50 (Cytochrome P450 3A4 (Homo sapiens)) for item CCN(CC)CCN(Cc1ccc(-c2ccc(Cl)cc2)cc1)C(=O)Cn1cc(Cc2cnn(C)c2)c(=O)nc1SCc1ccc(F)cc1 : 5

---

Across several publications, the following IC50 results were reported for Cytochrome P450 3A4 (Homo sapiens, UniProt P08684).

Nc1cc(CN2CCC(F)(C(=O)N3CCC(N4Cc5ccccc5C4)CC3)CC2)ccn1 | > 30 µM
CCc1cc(CC[C@]2(C3CCCC3)CC(O)=C(Cc3nc4nc(C)cc(C)n4n3)C(=O)O2)cc(CC)n1 | > 30 µM
C[C@H](NC(=O)c1c(N)nn2cccnc12)c1cc2cccc(C#Cc3cnn(C)c3)c2c(=O)n1-c1ccccc1 | > 20 µM

Log: Cytochrome P450 3A4 (Homo sapiens, UniProt P08684), molecule CC1(C)CCC(NC/C=C/CN(C[C@H]2Cc3ccccc3CN2)[C@H]2CCCc3cccnc32)CC1 , IC50 = 0.99 µM

Measured IC50 for this entry C[C@@H]1CCCN1CCc1ccc(-c2ccc(=O)n(C)n2)cc1 on Cytochrome P450 3A4 (Homo sapiens, UniProt P08684): > 30 µM

Hey, Cytochrome P450 3A4 (Homo sapiens, UniProt P08684) data for C[C@H](COc1ccc(-c2ccc(=O)n(C)n2)cc1)CN1CCC[C@H]1C : IC50 came out at > 30 µM

IC50 for Cytochrome P450 3A4 (Homo sapiens, UniProt P08684) with input O=C(/C=C/c1ccccc1)c1cccnc1 equals 11.1 µM

O=S(=O)(Nc1ccc(-c2cnco2)cc1)c1cc(Cl)cc(Cl)c1 tested on Cytochrome P450 3A4 (Homo sapiens, UniProt P08684) gave IC50: 1.6 µM

---

Here, compounds appear alongside IC50 reported for Cytochrome P450 3A4 (Homo sapiens) in the literature.

Answered cases to consult:
O=C(O)c1cc2sccc2[nH]1 | > 10 µM
O=c1c(O)c(-c2cccc(O)c2)oc2ccc(O)cc12 | > 10 µM
Cc1cc2c(cc1F)c(C#N)c(-c1ccc(S(=O)(=O)N[C@@H](C)C(F)(F)F)cn1)n2-c1ncc(F)cn1 | > 10 µM
CC(C)[C@]1(C)SC(N[C@H]2C[C@@H]3CC[C@H]2C3)=NC1=O | > 15 µM
CC(=O)Nc1cc(-c2cccc(N3CCC(O)CC3)n2)nc(-n2nc(C)cc2C)n1 | > 20 µM

O=C(O)CCC1(c2ccccn2)CCCN(C(=O)Nc2ccc(Cl)cc2)C1 (centres undefined) has a reported IC50 of > 10 µM

IC50 in this record for CC(=O)N[C@@H]1C[C@H](NC(C)(C)C)CC[C@@H]1N1CC[C@H](Nc2ncnc3ccc(OC(F)(F)F)cc23)C1=O : > 40 µM

IC50 for CN(C)CCn1cc(-c2nc([C@@](C)(c3ccc(-c4cnc(N)nc4)cc3)C3CC3)no2)cn1 is > 30 µM

According to the records, this compound CCc1nc(-c2ccc(F)cc2)c(-c2ccc3nc(N)n(S(=O)(=O)C(C)C)c3c2)[nH]1.CS(=O)(=O)O displays IC50 of 4.4 µM

IC50 recorded for this compound, O=C([C@H](O)c1ccccc1)N1CCN(c2ccc3[nH]ncc3c2)CC1 , is 10 µM
